Experiment: Antioxidant activity assessed as reduction in lipid peroxidation in microsomes at 200 ug/mL measured as malondialdehyde formation by spectrophotometry relative to control
Assay type: functional
Set-up: scale not given: the % may be the effect or the level left
Conditions: Microsome
value_kind: Activity (%)
Give just the numeric value; % need not be written.

Field: example entries. Status: answers known.
INSERT INTO results (molecule, scale_unit, value_measured) VALUES
  ('COc1ccc(/C=N/NC(=S)N[C@@H]2O[C@H](COC(C)=O)[C@@H](OC(C)=O)[C@H](OC(C)=O)[C@H]2OC(C)=O)cc1', '%', 35),
  ('CC(=O)OC[C@H]1O[C@@H](NC(=S)N/N=C/c2ccncc2)[C@H](OC(C)=O)[C@@H](OC(C)=O)[C@@H]1OC(C)=O', '%', 33);

(Q) # lookup: Activity of `CC(=O)OC[C@H]1O[C@@H](NC(=S)NNc2ccc(F)cc2)[C@H](OC(C)=O)[C@@H](OC(C)=O)[C@@H]1OC(C)=O`
(A) 34

(Q) Quick check: Activity of `CC(=O)OC[C@H]1O[C@@H](NC(=S)N/N=C(\C)c2cccc(N)c2)[C@H](OC(C)=O)[C@@H](OC(C)=O)[C@@H]1OC(C)=O` ?
(A) 35
